- assay target: Chromo domain-containing protein 1 (Saccharomyces cerevisiae (strain ATCC 204508 / S288c) (Baker's yeast)) (UniProt P32657)
- Sequence (P32657 whole entry, the tested form may be a part): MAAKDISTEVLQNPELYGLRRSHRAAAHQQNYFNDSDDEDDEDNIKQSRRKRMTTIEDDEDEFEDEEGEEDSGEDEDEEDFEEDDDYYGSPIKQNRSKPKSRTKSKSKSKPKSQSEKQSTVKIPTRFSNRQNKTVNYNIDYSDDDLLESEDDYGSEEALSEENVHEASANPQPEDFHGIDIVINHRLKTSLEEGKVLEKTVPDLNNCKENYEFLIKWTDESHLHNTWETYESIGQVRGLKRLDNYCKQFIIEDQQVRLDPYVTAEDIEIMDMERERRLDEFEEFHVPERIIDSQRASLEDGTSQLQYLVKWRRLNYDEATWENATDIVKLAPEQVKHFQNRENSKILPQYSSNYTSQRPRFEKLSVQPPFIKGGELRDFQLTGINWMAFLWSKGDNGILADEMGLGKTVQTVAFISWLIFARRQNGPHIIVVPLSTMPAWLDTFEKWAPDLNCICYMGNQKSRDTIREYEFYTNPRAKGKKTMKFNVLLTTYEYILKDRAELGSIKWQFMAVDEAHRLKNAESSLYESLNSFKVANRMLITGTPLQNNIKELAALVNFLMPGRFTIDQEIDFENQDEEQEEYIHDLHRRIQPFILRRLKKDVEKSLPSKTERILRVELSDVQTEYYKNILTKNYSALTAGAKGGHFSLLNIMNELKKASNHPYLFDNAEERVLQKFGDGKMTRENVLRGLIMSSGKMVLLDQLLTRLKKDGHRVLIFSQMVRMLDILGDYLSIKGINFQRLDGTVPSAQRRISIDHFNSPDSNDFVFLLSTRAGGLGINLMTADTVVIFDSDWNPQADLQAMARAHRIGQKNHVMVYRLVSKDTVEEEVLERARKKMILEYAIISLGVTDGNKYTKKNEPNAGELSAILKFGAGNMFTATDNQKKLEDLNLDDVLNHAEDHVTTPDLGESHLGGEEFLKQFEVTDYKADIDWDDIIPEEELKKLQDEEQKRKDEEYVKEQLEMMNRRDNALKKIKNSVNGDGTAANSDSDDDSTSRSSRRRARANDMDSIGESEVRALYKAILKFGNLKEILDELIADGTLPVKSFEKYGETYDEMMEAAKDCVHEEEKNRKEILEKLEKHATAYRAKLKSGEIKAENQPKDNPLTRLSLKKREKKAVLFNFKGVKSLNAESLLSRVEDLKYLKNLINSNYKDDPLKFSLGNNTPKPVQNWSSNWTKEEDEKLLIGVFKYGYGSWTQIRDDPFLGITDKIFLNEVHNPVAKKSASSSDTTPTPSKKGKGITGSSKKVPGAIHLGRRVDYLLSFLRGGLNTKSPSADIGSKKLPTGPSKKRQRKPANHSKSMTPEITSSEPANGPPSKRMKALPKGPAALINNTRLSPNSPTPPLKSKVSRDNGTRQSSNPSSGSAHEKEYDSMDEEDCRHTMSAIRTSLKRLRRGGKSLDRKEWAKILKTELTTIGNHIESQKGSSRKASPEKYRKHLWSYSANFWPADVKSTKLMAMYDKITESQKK
- assay procedure: ScCHD-1 Enzyme Inhibition Assay
- Type: functional
- Set-up: scale not given: in the data most compounds retested in dose-response had high values
- details: 30 µM
Give Percent Effect for every item shown.
Field: numeric (%). Do not append units.

Q) Any idea what its Percent Effect is? The molecule is OC(CNCCn1cccn1)c1ccc2c(c1)OCCO2 (centres undefined)
A) -13.4

Q) Any idea what its Percent Effect is? The molecule is CN(c1ccc(C(=O)NCCCN2CCOCC2)c(Cl)c1)S(C)(=O)=O
A) -6.36

Q) Any idea what its Percent Effect is? The molecule is COCCN1C[C@H]2[C@@H](C1)N(Cc1ccc(C)o1)CC[C@H]2OC
A) -11.5

Q) Any idea what its Percent Effect is? The molecule is CC(C)(CNC(=O)NCCOc1cccc(F)c1)C(N)=O
A) -6.58

Q) Any idea what its Percent Effect is? The molecule is COc1cccc(-c2nc(CNCCn3cccn3)cs2)c1
A) 1.48

Q) Any idea what its Percent Effect is? The molecule is O=C(CCc1ccccc1)N1CCn2cc(Cn3cncn3)nc2C1
A) 1.43

Q) Any idea what its Percent Effect is? The molecule is N#CCCN(CCC#N)C(=O)CN1CCCC1Cc1cccc(F)c1 (centres undefined)
A) 0.083

Q) Any idea what its Percent Effect is? The molecule is CNC(=O)c1cccnc1Oc1ccccc1
A) -9.58

Q) Any idea what its Percent Effect is? The molecule is CN1C(=O)C[C@@H]2[C@@H]1CCN2C(=O)c1ccc[nH]1
A) 0.233

Q) Any idea what its Percent Effect is? The molecule is COC(=O)Cn1c(=O)nc2n1C(=O)N(c1ccccc1)C2
A) -2.64

Q) Any idea what its Percent Effect is? The molecule is CN(C)c1ccccc1C(=O)N1C[C@@H](CN2CCOCC2)[C@@H](CO)C1
A) -2.44

Q) Any idea what its Percent Effect is? The molecule is Cn1c(CC2CCS(=O)(=O)C2)nnc1SCCOc1ccccc1F (centres undefined)
A) -9.15

Q) Any idea what its Percent Effect is? The molecule is CCc1nnsc1C(=O)NCCn1nc2ccccn2c1=O
A) -9.16

Q) Any idea what its Percent Effect is? The molecule is Cc1ccc(CN2CC[C@H]3C[C@@H](c4nc(C5CC5)cs4)O[C@@H]3C2)o1
A) -1.64

Q) Any idea what its Percent Effect is? The molecule is c1ccc(OCCCN2CCN(c3ccc4nncn4n3)CC2)cc1
A) -1.5

Q) Any idea what its Percent Effect is? The molecule is O=C(c1cccnc1)N1C[C@@H]2CC[C@H](C1)N(Cc1cc(F)ccc1F)C2
A) -7.41

Q) Any idea what its Percent Effect is? The molecule is COCCn1cc(C(=O)N2CCCC2c2cc(C)no2)ccc1=O (centres undefined)
A) -3.51

Q) Any idea what its Percent Effect is? The molecule is Cn1cc(C(=O)N2CCCC(Cc3nccs3)C2)cn1 (centres undefined)
A) -16.3

Q) Any idea what its Percent Effect is? The molecule is Cc1nc(CN2CCN(C(=O)COCc3ccccc3)CC2)no1
A) -7.9

Q) Any idea what its Percent Effect is? The molecule is COc1cccc(C(=O)N2CCCCC2CNC(N)=O)c1 (centres undefined)
A) 0.323

Q) Any idea what its Percent Effect is? The molecule is COCC(=O)N1CCC(c2cccc(Cc3ccc(F)cc3)n2)CC1
A) -12.4

Q) Any idea what its Percent Effect is? The molecule is COc1ccc(CN2CCN(C(C)c3nc(C4CC4)no3)CC2)cc1 (centres undefined)
A) -7.9

Q) Any idea what its Percent Effect is? The molecule is O=C(c1ccc[nH]1)N1C[C@H](OCc2cccnc2)[C@H]2COC[C@H]21
A) -5.43

Q) Any idea what its Percent Effect is? The molecule is CN1CCOC(CNCCc2ccccn2)C1 (centres undefined)
A) -2.67
